Quick reference: absolute recovery of the listed items.
# assayNotes: absolute recovery over vacuum-assisted evaporative concentration; higher = better recovery
# setupConditions: wastewater effluent; enrichment method: VEC
The answer is to be given in %; state only the numeric part.

Here is how some compounds turned out for absolute recovery.
{"columns": ["compound", "absolute recovery, %"],
 "data": [
  ["CC(=O)NCC1CN(c2ccc(N3CCOCC3)c(F)c2)C(=O)O1 (centres undefined)", 103],
  ["CC(C)N(C(=O)CCl)c1ccccc1", 83.8]
]}

Query: Look up and report measured absolute recovery for this entry: O=C1C=CC(=C2NC=CNC2=O)C=C1
Result: 105

Query: Look up and report measured absolute recovery for this entry: CCOc1cc(Oc2ccc(C(F)(F)F)cc2Cl)ccc1[N+](=O)[O-]
Result: 87.1

Query: Look up and report measured absolute recovery for this entry: CC12CC3CC(C)(C1)CC([NH3+])(C3)C2 [Memantine]
Result: 100
